Each entry below carries its reported ECL signal.
# ASSAY_TARGET: T1, Recombinant Human DLL4 (R&D Systems Cat#1506-D4/CF) (human, UniProt Q9NR61 27-524)
# T1 construct: Bought protein (R&D Systems Cat#1506-D4/CF), immobilised on the MSD plate; also called delta-like protein 4; rHuman DLL4
# PROTOCOL_SUMMARY: ECL (MSD) multispot binding assay, DLL4 immobilised, Fab in solution
Answer using only a numeral; do not append any unit.

**Q:** Return reported ECL signal; argument: Fab VH1-46_IGHD6-6*01_IGHJ1*01 S102A/S103P/S104F/H111F (APFF) & L6_IGKJ1*01 N93Q (Fab, V domains shown, Fab with CH1 plus His6/Flag tags and kappa CL from the expression plasmids; also called APFF & N93Q) VH: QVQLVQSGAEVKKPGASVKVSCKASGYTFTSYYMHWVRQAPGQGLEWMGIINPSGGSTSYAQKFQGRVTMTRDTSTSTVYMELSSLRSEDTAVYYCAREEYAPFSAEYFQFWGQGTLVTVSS VL: EIVLTQSPATLSLSPGERATLSCRASQSVSSYLAWYQQKPGQAPRLLIYDASNRATGIPARFSGSGSGTDFTLTISSLEPEDFAVYYCQQRSQWPPWTFGQGTKVEIKR
**A:** 704

**Q:** What does the data say about its ECL signal? Entry: Fab VH1-46_IGHD6-6*01_IGHJ1*01 S102A/S103P/S104F (APF) & L6_IGKJ1*01 R91P (Fab, V domains shown, Fab with CH1 plus His6/Flag tags and kappa CL from the expression plasmids; also called APF & R91P) VH: QVQLVQSGAEVKKPGASVKVSCKASGYTFTSYYMHWVRQAPGQGLEWMGIINPSGGSTSYAQKFQGRVTMTRDTSTSTVYMELSSLRSEDTAVYYCAREEYAPFSAEYFQHWGQGTLVTVSS VL: EIVLTQSPATLSLSPGERATLSCRASQSVSSYLAWYQQKPGQAPRLLIYDASNRATGIPARFSGSGSGTDFTLTISSLEPEDFAVYYCQQPSNWPPWTFGQGTKVEIKR
**A:** 1280

**Q:** Reported ECL signal, binder Fab VH1-46_IGHD6-6*01_IGHJ1*01 S102A/S103P/S104F (APF) & L6_IGKJ1*01 S92N (Fab, V domains shown, Fab with CH1 plus His6/Flag tags and kappa CL from the expression plasmids; also called APF & S92N) VH: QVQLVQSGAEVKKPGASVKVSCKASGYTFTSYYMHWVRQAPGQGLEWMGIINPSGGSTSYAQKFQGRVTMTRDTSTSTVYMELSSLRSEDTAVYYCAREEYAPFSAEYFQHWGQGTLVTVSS VL: EIVLTQSPATLSLSPGERATLSCRASQSVSSYLAWYQQKPGQAPRLLIYDASNRATGIPARFSGSGSGTDFTLTISSLEPEDFAVYYCQQRNNWPPWTFGQGTKVEIKR : ____
**A:** 2090
